system: MCF-7; experiment: MTT antiproliferative assay, 48 h, MCF-7; assay type: cell-based, human; conditions: 48-hour exposition, read-out: Cytotoxicity, IC50, μM MCF-7
Measure: IC50 (µM)
Give just the number in µM; leave the unit off.

Value of IC50 reported for the molecule COC(=O)C1CN1S(=O)(=O)c1ccc2c(C=O)c(N(C)C)ccc2c1 (stereo not shown) is 20
